test system: 855422-203-R-J1-PDC complex spheroid viability; assay: Anticancer human tumor 855422-203-R-J1-PDC patient-derived bladder carcinoma cell line growth inhibition [POLQ]; settings: second compound 10 µM; first compound 0.0316 µM; stronger effect = lower value
viability, T/C for assorted compounds

[
  {
    "compound": "CCc1cc2c(N3CCc4c(cc(Cn5ccnc5)cc4-c4cn(C)nc4C(F)(F)F)C3=O)cc(C)nc2c(OC)n1 + COC1C(OC(N)=O)C(O)C(Oc2ccc3c(O)c(NC(=O)c4ccc(O)c(CC=C(C)C)c4)c(=O)oc3c2C)OC1(C)C",
    "viability, T/C, %": 83.2
  },
  {
    "compound": "Nc1ccn(C2OC(CO)C(O)C2(F)F)c(=O)n1 (stereo not drawn) + Nc1ccc(C#CCN(C(=O)Cc2ncc(C(F)(F)F)cc2C(F)(F)F)c2ccc(F)cc2)nn1",
    "viability, T/C, %": 105
  },
  {
    "compound": "O=C(Nc1ccc(O)c(NS(=O)(=O)c2ccc(F)cc2)c1)c1ccc(-c2ccccc2)cc1 + Nc1ccc(C#CCN(C(=O)Cc2ncc(C(F)(F)F)cc2C(F)(F)F)c2ccc(F)cc2)nn1",
    "viability, T/C, %": 92
  }
]

###

tested on: 855422-203-R-J1-PDC complex spheroid viability; assay: Anticancer human tumor 855422-203-R-J1-PDC cell line growth inhibition [POLQ]; conditions: second compound 3.16 µM; first compound 1 µM; active = viability on the fitted dose curve at most 10% of control; inactive = the rest;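 note: spheroids exposed to compounds for seven days before readout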
Outcomes: yes (1) for active, no (0) for inactive

[
  {
    "compound": "COc1cc(C2c3cc4c(cc3C(OC3OC5COC(C)OC5C(O)C3O)C3COC(=O)C23)OCO4)cc(OC)c1O (stereo not given) + Cc1cccc(N(C)C(=O)C2C(O)CCN2c2nc(C)cc(C(F)(F)F)c2C#N)c1",
    "groupLabel": "yes (1)"
  },
  {
    "compound": "CNCc1ccc(-c2[nH]c3cc(F)cc4c3c2CCNC4=O)cc1 + Nc1ccc(C#CCN(C(=O)Cc2ncc(C(F)(F)F)cc2C(F)(F)F)c2ccc(F)cc2)nn1",
    "groupLabel": "no (0)"
  },
  {
    "compound": "COc1cccc(OCCCN)c1-c1cc(Nc2cnc(C#N)cn2)n[nH]1 + Nc1ccc(C#CCN(C(=O)Cc2ncc(C(F)(F)F)cc2C(F)(F)F)c2ccc(F)cc2)nn1",
    "groupLabel": "yes (1)"
  },
  {
    "compound": "CCc1cc2c(N3CCc4c(cc(Cn5ccnc5)cc4-c4cn(C)nc4C(F)(F)F)C3=O)cc(C)nc2c(OC)n1 + Cc1cccc(N(C)C(=O)C2C(O)CCN2c2nc(C)cc(C(F)(F)F)c2C#N)c1",
    "groupLabel": "no (0)"
  },
  {
    "compound": "O=C(c1cc(Cc2n[nH]c(=O)c3ccccc23)ccc1F)N1CCN(C(=O)C2CC2)CC1 + COC1C(OC(N)=O)C(O)C(Oc2ccc3c(O)c(NC(=O)c4ccc(O)c(CC=C(C)C)c4)c(=O)oc3c2C)OC1(C)C",
    "groupLabel": "no (0)"
  }
]

###

tested on: 855422-203-R-J1-PDC complex spheroid viability; test: Anticancer human tumor 855422-203-R-J1-PDC cell line growth inhibition [POLQ]; conditions: curve of first compound; second compound 1 µM;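 note: spheroids exposed to compounds for seven days before readout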
measurementName: IC50

[
  {
    "molecule": "O=C(c1cc(Cc2n[nH]c(=O)c3ccccc23)ccc1F)N1CCN(C(=O)C2CC2)CC1 + COC1C(OC(N)=O)C(O)C(Oc2ccc3c(O)c(NC(=O)c4ccc(O)c(CC=C(C)C)c4)c(=O)oc3c2C)OC1(C)C",
    "assayValue": "> 10 µM"
  },
  {
    "molecule": "C=CC(=O)N1CCN(c2nc(=O)n(-c3c(C)ccnc3C(C)C)c3nc(-c4c(O)cccc4F)c(F)cc23)C(C)C1 (stereo not drawn) + Nc1ccc(C#CCN(C(=O)Cc2ncc(C(F)(F)F)cc2C(F)(F)F)c2ccc(F)cc2)nn1",
    "assayValue": "> 10 µM"
  },
  {
    "molecule": "C#Cc1c(F)ccc2cc(O)cc(-c3ncc4c(N5CC6CCC(C5)N6)nc(OCC56CCCN5CC(F)C6)nc4c3F)c12 (stereo not drawn) + COC1C(OC(N)=O)C(O)C(Oc2ccc3c(O)c(NC(=O)c4ccc(O)c(CC=C(C)C)c4)c(=O)oc3c2C)OC1(C)C",
    "assayValue": "> 10 µM"
  }
]

###

test system: 855422-203-R-J1-PDC complex spheroid viability; assay: Anticancer human tumor 855422-203-R-J1-PDC cell line growth inhibition [POLQ]; conditions: second compound 1 µM; first compound 0.0316 µM; stronger effect = lower value;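 note: spheroids exposed to compounds for seven days before readout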

[
  {
    "compound": "O=C(Nc1ccc(O)c(NS(=O)(=O)c2ccc(F)cc2)c1)c1ccc(-c2ccccc2)cc1 + COC1C(OC(N)=O)C(O)C(Oc2ccc3c(O)c(NC(=O)c4ccc(O)c(CC=C(C)C)c4)c(=O)oc3c2C)OC1(C)C",
    "target": "855422-203-R-J1-PDC complex spheroid viability",
    "viability, T/C / %": 106
  },
  {
    "compound": "Cn1ncnc1[C@H]1c2n[nH]c(=O)c3cc(F)cc(c23)N[C@@H]1c1ccc(F)cc1 + COC1C(OC(N)=O)C(O)C(Oc2ccc3c(O)c(NC(=O)c4ccc(O)c(CC=C(C)C)c4)c(=O)oc3c2C)OC1(C)C",
    "target": "855422-203-R-J1-PDC complex spheroid viability",
    "viability, T/C / %": 103
  },
  {
    "compound": "COc1cccc2c1C(=O)c1c(O)c3c(c(O)c1C2=O)CC(O)(C(=O)CO)CC3OC1CC(N)C(O)C(C)O1 (centres undefined) + COC1C(OC(N)=O)C(O)C(Oc2ccc3c(O)c(NC(=O)c4ccc(O)c(CC=C(C)C)c4)c(=O)oc3c2C)OC1(C)C",
    "target": "855422-203-R-J1-PDC complex spheroid viability",
    "viability, T/C / %": 18.5
  },
  {
    "compound": "CC1COCCN1c1cc(-c2ccnn2C)c2ccnc(-c3ccn[nH]3)c2n1 (centres undefined) + COC1C(OC(N)=O)C(O)C(Oc2ccc3c(O)c(NC(=O)c4ccc(O)c(CC=C(C)C)c4)c(=O)oc3c2C)OC1(C)C",
    "target": "855422-203-R-J1-PDC complex spheroid viability",
    "viability, T/C / %": 104
  }
]

###

test system: 855422-203-R-J1-PDC complex spheroid viability; test: Anticancer human tumor 855422-203-R-J1-PDC cell line growth inhibition [POLQ]; settings: second compound 0.0316 µM; first compound 0.1 µM; active = viability on the fitted dose curve at most 10% of control; inactive = the rest;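 note: spheroids exposed to compounds for seven days before readout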
Outcomes: active, inactive

[
  {
    "compound": "CCc1cc2c(N3CCc4c(cc(Cn5ccnc5)cc4-c4cn(C)nc4C(F)(F)F)C3=O)ccnc2c(OC)n1 + Cc1cccc(N(C)C(=O)C2C(O)CCN2c2nc(C)cc(C(F)(F)F)c2C#N)c1",
    "groupLabel": "inactive"
  },
  {
    "compound": "CC1COCCN1c1cc(C2(O)CC3CCC(C2)O3)c2cnn(-c3ccn[nH]3)c2n1 (stereo unspecified) + Cc1cccc(N(C)C(=O)C2C(O)CCN2c2nc(C)cc(C(F)(F)F)c2C#N)c1",
    "groupLabel": "inactive"
  },
  {
    "compound": "CCc1c2c(nc3ccc(O)cc13)-c1cc3c(c(=O)n1C2)COC(=O)[C@]3(O)CC + COC1C(OC(N)=O)C(O)C(Oc2ccc3c(O)c(NC(=O)c4ccc(O)c(CC=C(C)C)c4)c(=O)oc3c2C)OC1(C)C",
    "groupLabel": "active"
  },
  {
    "compound": "O=c1[nH]cc(F)c(=O)[nH]1 + Nc1ccc(C#CCN(C(=O)Cc2ncc(C(F)(F)F)cc2C(F)(F)F)c2ccc(F)cc2)nn1",
    "groupLabel": "inactive"
  },
  {
    "compound": "CC[C@@]1(O)C(=O)OCc2c1cc1n(c2=O)Cc2cc3c(CN(C)C)c(O)ccc3nc2-1 + COC1C(OC(N)=O)C(O)C(Oc2ccc3c(O)c(NC(=O)c4ccc(O)c(CC=C(C)C)c4)c(=O)oc3c2C)OC1(C)C",
    "groupLabel": "inactive"
  },
  {
    "compound": "CC[C@@]1(O)C(=O)OCc2c1cc1n(c2=O)Cc2cc3c(CN(C)C)c(O)ccc3nc2-1 + Cc1cccc(N(C)C(=O)C2C(O)CCN2c2nc(C)cc(C(F)(F)F)c2C#N)c1",
    "groupLabel": "inactive"
  }
]

###

tested on: 855422-203-R-J1-PDC complex spheroid viability; assay: Anticancer human tumor 855422-203-R-J1-PDC cell line growth inhibition [POLQ]; details: curve of compound;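 note: spheroids exposed to compounds for seven days before readout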
pIC50: −log10 of the molar value.
pIC50 for assorted compounds

[
  {
    "compound": "C=CC(=O)N1CCN(c2nc(=O)n(-c3c(C)ccnc3C(C)C)c3nc(-c4c(O)cccc4F)c(F)cc23)C(C)C1 (stereo not given)",
    "target": "855422-203-R-J1-PDC complex spheroid viability",
    "pIC50": "< 5.00"
  },
  {
    "compound": "C#Cc1c(F)ccc2cc(O)cc(-c3ncc4c(N5CC6CCC(C5)N6)nc(OCC56CCCN5CC(F)C6)nc4c3F)c12 (stereo not given)",
    "target": "855422-203-R-J1-PDC complex spheroid viability",
    "pIC50": "< 5.00"
  },
  {
    "compound": "COc1cc2cc(C(=O)CCC(=O)O)sc2cc1OC",
    "target": "855422-203-R-J1-PDC complex spheroid viability",
    "pIC50": "< 5.00"
  },
  {
    "compound": "CC(C)n1c(=O)n(C)c2cnc3cc(F)c(-c4ccc(OCCCN5CCCCC5)nc4)cc3c21",
    "target": "855422-203-R-J1-PDC complex spheroid viability",
    "pIC50": "< 5.00"
  },
  {
    "compound": "COc1cccc2c1C(=O)c1c(O)c3c(c(O)c1C2=O)CC(O)(C(=O)CO)CC3OC1CC(N)C(O)C(C)O1 (stereo not given)",
    "target": "855422-203-R-J1-PDC complex spheroid viability",
    "pIC50": "> 7.50"
  }
]

Attribution: PubChem BioAssay AID1963838
